B1: 1ZHC (parent)
chain: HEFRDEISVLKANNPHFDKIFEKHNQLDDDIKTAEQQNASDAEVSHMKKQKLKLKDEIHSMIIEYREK

Variants of: B1
Test: folding stability dG (cDNA display proteolysis); higher = more stable
Settings: PBS, room temperature
Each entry below lists one item and its recorded folding stability dG value.
The reply should contain only the number, in kcal/mol.

Take a look at these entries with their results.
- Construct sequence: "HEFRDEISVLKANNPHFDKIFEKHNQLDDDIKTAEQQNASDAEVSHMKKQKLKLKDEIHSMIIEYRTK [E67T]"
  Readout kind: "folding stability dG"
  Reported result: 1.38
- Construct sequence: "HEFRDEISVLKANNPHFDKIFEKHNQLDDDIKTAEQQNASDAEVSHMKKQKLKLKMEIHSMIIEYREK [D56M]"
  Readout kind: "folding stability dG"
  Reported result: 1.57

Returns the measured folding stability dG for the input variant. Input: HEFRDEISVLKANNPHFDKIFEKHVQLDDDIKTAEQQNASDAEVSHMKKQKLKLKDEIHSMIIEYREK [N25V]
0.471

Returns the measured folding stability dG for the input variant. Input: HEFRDEISVLKANNPHFDKIFEKHNQLDDDIKTAEQKNASDAEVSHMKKQKLKLKDEIHSMIIEYREK [Q37K]
0.764

Returns the measured folding stability dG for the input variant. Input: HGFRDEISVLKANNPHFDKIFEKHNQLDDDIKTAEQQNASDAEVSHMKKQKLKLKDEIHSMIIEYREK [E2G]
0.827

Returns the measured folding stability dG for the input variant. Input: HEFRDEISVLKANNPHFDKIFEKHNQLDDDIKTAEQQNASDAEVSHMKKQKLKLGDEIHSMIIEYREK [K55G]
0.766

Returns the measured folding stability dG for the input variant. Input: HEFRDEISVLKANNPHFDKIFEKHNQLDDDIKCAEQQNASDAEVSHMKKQKLKLKDEIHSMIIEYREK [T33C]
0.988

Returns the measured folding stability dG for the input variant. Input: HEFRDEISVLKANNPHFDKIFEKHNQLDDDIKTAEQQNAGDAEVSHMKKQKLKLKDEIHSMIIEYREK [S40G]
0.619

Returns the measured folding stability dG for the input variant. Input: HEFRDEISVLKANNPHFDKIFEKHNQLDDDIKTAEQQNASDAEVGHMKKQKLKLKDEIHSMIIEYREK [S45G]
0.349

Returns the measured folding stability dG for the input variant. Input: HEFRDEISVLKANNPHFDKIFEKHNQLDDDIKTAEQQNASDAEVSHMKKQKLKLKDEIHSMIIEYREH [K68H]
0.512

Returns the measured folding stability dG for the input variant. Input: HEFRDEISVLKANNPHFDKIFEKHNQLDDDIKTAEQQNASDAEVSHMKKQKLKLKDEIHSMIVEYREK [I63V]
0.61
